Values were extracted from ChEMBL document CHEMBL1127140.

# TESTED TARGET: Neutrophil elastase (Homo sapiens)
# Sequence (P08246 whole entry): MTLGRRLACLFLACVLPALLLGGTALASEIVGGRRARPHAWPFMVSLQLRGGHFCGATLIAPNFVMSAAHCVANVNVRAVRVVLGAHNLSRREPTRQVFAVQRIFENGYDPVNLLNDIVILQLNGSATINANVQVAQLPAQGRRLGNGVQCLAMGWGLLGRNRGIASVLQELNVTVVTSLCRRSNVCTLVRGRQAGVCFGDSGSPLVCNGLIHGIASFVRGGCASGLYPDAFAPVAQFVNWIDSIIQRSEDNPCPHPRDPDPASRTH
# EXPERIMENT: Tested in vitro for its inhibitory effect against Elastase using Suc-Ala--Ala-Pro-Ala-pNA as substrate
// classify: if (Ki < 20 µM) Condition met else Condition not met

Ask: Does the reported Ki of CC1(C)[C@H](C(=O)N2CCC[C@@H]2C(=O)O)N2C(=O)[C@@H](NC(=O)C(F)(F)F)[C@H]2S1(=O)=O stay below 20 µM?
Result: Condition not met

Ask: Determine if CN(CC(=O)O)C(=O)[C@@H]1N2C(=O)[C@H](NC(=O)C(F)(F)F)[C@H]2S(=O)(=O)C1(C)C shows Ki strictly lower than 20 µM.
Result: Condition met

Ask: Lab log: compare recorded Ki with 20 µM; is it strictly lower for CCO[C@H]1C(=O)N2[C@@H](C(=O)OCc3ccc(C(=O)O)cc3)C(C)(C)S(=O)(=O)[C@H]12 ?
Result: Condition met

Ask: Lab log: compare recorded Ki with 20 µM; is it strictly lower for CO[C@H]1C(=O)N2[C@@H](C(=O)N(C)CC(=O)O)C(C)(C)S(=O)(=O)[C@H]12 ?
Result: Condition not met

Ask: Lab note: confirm whether the reported Ki for this compound is below 20 µM, equality not counting. compound: CC1(C)[C@H](C(=O)OCc2ccc(C(=O)O)cc2)N2C(=O)[C@H](NC(=O)C(F)(F)F)[C@H]2[S+]1[O-] (stereo partly specified)
Result: Condition met

Ask: Is Ki of CN(CC(=O)O)C(=O)[C@@H]1N2C(=O)[C@@H](NC(=O)C(F)(F)F)[C@H]2S(=O)(=O)C1(C)C strictly below 20 µM?
Result: Condition not met

* * *

# TESTED TARGET: Neutrophil elastase (Homo sapiens) (UniProt P08246)
# Sequence (P08246 whole entry): as above
Please go through the items and note down their log10(K obs / 1).
// stored as log10 of K obs / 1 expressed in M⁻¹ s⁻¹

Ask: Determine its reported log10(K obs / 1): CC1(C)[C@H](C(=O)OCc2ccc(C(=O)O)cc2)N2C(=O)[C@@H](NC(=O)C(F)(F)F)[C@H]2S1(=O)=O
Result: 3.85

Ask: Determine its reported log10(K obs / 1): CN(Cc1ccc(C(=O)O)cc1)C(=O)[C@@H]1N2C(=O)[C@H](NC(=O)C(F)(F)F)[C@@H]2[S+]([O-])C1(C)C (some centres not stated)
Result: 3.04

Ask: Please report the measured log10(K obs / 1) for CC1(C)[C@H](C(=O)N2CCC[C@@H]2C(=O)O)N2C(=O)[C@H](NC(=O)C(F)(F)F)[C@H]2S1(=O)=O
Result: 1.41

Ask: Please report log10(K obs / 1) for the following compound: CN(Cc1ccc(C(=O)O)cc1)C(=O)[C@@H]1N2C(=O)[C@@H](NC(=O)C(F)(F)F)[C@H]2S(=O)(=O)C1(C)C
Result: 2.44

Ask: Return value of log10(K obs / 1) for input CO[C@H]1C(=O)N2C(C(=O)N3CCC[C@H]3C(=O)O)=C(COC(C)=O)CS(=O)(=O)[C@H]12 , no commentary.
Result: 3.58

Ask: // Input: CC1(C)[C@H](C(=O)OCc2ccc(C(=O)O)cc2)N2C(=O)[C@H](NC(=O)C(F)(F)F)[C@@H]2[S+]1[O-] (some centres not stated) . Output its log10(K obs / 1) only.
Result: 3.69

Ask: Retrieve log10(K obs / 1) measured for CN(Cc1ccc(C(=O)O)cc1)C(=O)[C@@H]1N2C(=O)[C@H](NC(=O)C(F)(F)F)[C@H]2[S+]([O-])C1(C)C (some centres not stated) and print it.
Result: 1.78
